System: MOLM-13 cells
Assay: Cell viability assay (CellTiter-Glo) in MOLM-13 cells, alone or with gilteritinib
Type: cell-based
Settings: Homo sapiens, MOLM-13, 72 h, MOLM-13 cells, compound alone (without gilteritinib), three days, CellTiter-Glo; read-out: MOLM-13 IC50
pIC50: −log10 of the molar value.
outcome_measure: pIC50

Report pIC50 for O=C1CCC(N2C(=O)c3ccc(NCCCCC(=O)N4CCC(n5cc(-c6cnc7ccccc7n6)cn5)CC45CC5)cc3C2=O)C(=O)N1 (stereo not shown) please.
< 6.00

Subsequent entry: O=C1CCC(N2Cc3cc(NC(=O)Cc4cccc(N5CCC(n6cc(-c7cnc8ccccc8n7)cn6)CC5)c4)ccc3C2=O)C(=O)N1 (stereo not shown)
> 8.00

Also, O=C1CCC(N2C(=O)c3ccc(NC[C@H]4C[C@H](n5cc(N6CCCCC6)c(C6CC6)n5)C4)cc3C2=O)C(=O)N1 (stereo partly shown) please.
< 6.00

###

# IC50 annotations
System: MOLM-13 cells
Assay: Cell viability assay (CellTiter-Glo) in MOLM-13 cells, alone or with gilteritinib
Assay type: cell-based
Conditions: Homo sapiens, MOLM-13, 72 h, MOLM-13 cells, compound alone (without gilteritinib), three days, CellTiter-Glo; read-out: MOLM-13 IC50

• O=C1CCC(N2C(=O)c3ccc(NCCCCCCn4cc(-c5cnc6ccc(N7CCOCC7)cc6n5)cn4)cc3C2=O)C(=O)N1 (stereo not shown) [GS-530] = 10 to 100 nM
• N#Cc1cccc2ncc(-c3cnn(CCCCCCNc4ccc5c(c4)C(=O)N(C4CCC(=O)NC4=O)C5=O)c3)nc12 (stereo not shown) [GS-165] = 100 to 1000 nM
• O=C1CCC(N2C(=O)c3ccc(NCCC4CC(n5cc(-c6cnc7ccccc7n6)cn5)C4)cc3C2=O)C(=O)N1 (stereo not shown) [GS-561] = > 1000 nM

Now for a further compound.
Using the record for O=C1CCC(N2C(=O)c3ccc(CNC(=O)NC4CCCC(n5cc(-c6cnc7ccccc7n6)cn5)C4)cc3C2=O)C(=O)N1 (stereo not shown) [GS-349] , report its IC50.
100 to 1000 nM

###

Test system: MOLM-13 cells
Assay: Cell viability assay (CellTiter-Glo) in MOLM-13 cells, alone or with gilteritinib
Type: cell-based
Conditions: Homo sapiens, MOLM-13, 72 h, MOLM-13 cells, with gilteritinib 20 nM, three days, CellTiter-Glo; read-out: MOLM-13 IC50 gilteritinib
pIC50: −log10 of the molar value.
Let's look at some compounds and their measured pIC50.

Sample records with pIC50:
* Cc1nc2ccccc2nc1-c1cnn(CCCCCCCc2ccc3c(c2)C(=O)N(C2CCC(=O)NC2=O)C3)c1 (centres unmarked) [GS-134] | > 8.00
* O=C1CCC(N2C(=O)c3ccc(NCCCCC(=O)N4C5CCC4CC(n4cc(-c6cnc7ccccc7n6)cn4)C5)cc3C2=O)C(=O)N1 (centres unmarked) [GS-136] | < 6.00
* O=C1CCC(N2C(=O)c3ccc(NCCCC4CC(n5cc(-c6cnc7cccc(F)c7n6)cn5)C4)cc3C2=O)C(=O)N1 (centres unmarked) [GS-164] | 7.00 to 8.00
* O=C(CN1CCCC(N2CCN(c3ccccn3)CC2)C1)NCc1ccc2c(c1)C(=O)N(C1CCC(=O)NC1=O)C2=O (centres unmarked) [GS-359] | < 6.00

Switching to the query record.
Looking for the measured pIC50 of Cc1nn(C2CC(CCCNc3ccc4c(c3)C(=O)N(C3CCC(=O)NC3=O)C4=O)C2)c(C)c1-c1cnc2cccc(F)c2n1 (centres unmarked) [GS-156] , can you help?
> 8.00

###

Tested on: MOLM-13 cells
Test: Cell viability assay (CellTiter-Glo) in MOLM-13 cells, alone or with gilteritinib
Format: cell-based
Details: Homo sapiens, MOLM-13, 72 h, MOLM-13 cells, with gilteritinib 20 nM, three days, CellTiter-Glo; read-out: MOLM-13 IC50 gilteritinib
outcome_measure: IC50

Example results:
- CN1CCC(Nc2ccnc(-c3cn([C@H]4C[C@H](CNc5ccc6c(c5)C(=O)N(C5CCC(=O)NC5=O)C6=O)C4)nc3C3CC3)c2)CC1 (some centres unmarked) [GS-295]: > 1000 nM
- O=C1CCC(N2C(=O)c3ccc(NCCC[C@H]4C[C@H](n5cc(-c6cnc7ccc(OC8CCNCC8)cc7n6)cn5)C4)cc3C2=O)C(=O)N1 (some centres unmarked) [GS-204]: < 10 nM
- O=C1CCC(N2C(=O)c3ccc(NCCC[C@H]4C[C@@H](n5cc(-c6cnc7ccc(N8CCOCC8)cc7n6)cn5)C4)cc3C2=O)C(=O)N1 (some centres unmarked) [GS-207]: < 10 nM

Looking for the measured IC50 of O=C1CCC(N2C(=O)c3ccc(NCCCCCn4cc(-c5cnc6ccccc6n5)cn4)cc3C2=O)C(=O)N1 (centres unmarked) [GS-356] , can you help?
100 to 1000 nM

Same thing, different molecule: O=C1CCC(N2C(=O)c3ccc(NCCc4cccc(N5CCC(n6cc(-c7cnc8ccccc8n7)cn6)CC5)c4)cc3C2=O)C(=O)N1 (centres unmarked) [GS-152]
10 to 100 nM

Same lookup for O=C1CCC(N2C(=O)c3ccc(NCCCCCC(=O)N4CCC(n5cc(-c6cnc7cccc(C8CCNCC8)c7n6)cn5)CC4)cc3C2=O)C(=O)N1 (centres unmarked) [GS-044] , please.
< 10 nM

How about this molecule: CN1CCN(c2cccc(-c3cnn([C@H]4C[C@H](CCCNc5ccc6c(c5)C(=O)N(C5CCC(=O)NC5=O)C6=O)C4)c3)n2)CC1 (some centres unmarked) [GS-245]
100 to 1000 nM

Same question for Cc1ccc(-c2cn([C@H]3C[C@H](CNc4ccc5c(c4)C(=O)N(C4CCC(=O)NC4=O)C5=O)C3)nc2C2CC2)nc1 (some centres unmarked) [GS-256] please.
< 10 nM

Could you do the same for O=C1CCC(N2C(=O)c3ccc(NCCC45CC(C(=O)N6CCC(n7cc(-c8cnc9ccccc9n8)cn7)CC6)(C4)C5)cc3C2=O)C(=O)N1 (centres unmarked) [GS-194] , please?
< 10 nM

Please give the result for O=C1CCC(N2C(=O)c3ccc(NC[C@H]4C[C@H](n5cc(-c6cc7[nH]ncc7cn6)c(C6CC6)n5)C4)cc3C2=O)C(=O)N1 (some centres unmarked) [GS-288] too.
10 to 100 nM

Param item: O=C1CCC(N2C(=O)c3ccc(NCCC[C@H]4C[C@H](n5cc(-c6cnc7ccccc7n6)c(C(F)F)n5)C4)cc3C2=O)C(=O)N1 (some centres unmarked) [GS-243]
< 10 nM

###

Tested on: MOLM-13 cells
Experiment: Cell viability assay (CellTiter-Glo) in MOLM-13 cells, alone or with gilteritinib
Type: cell-based
Settings: Homo sapiens, MOLM-13, 72 h, MOLM-13 cells, compound alone (without gilteritinib), three days, CellTiter-Glo; read-out: MOLM-13 IC50
pIC50: −log10 of the molar value.
outcome_measure: pIC50

• CCc1cccc(-c2cn([C@H]3C[C@H](CNc4ccc5c(c4)C(=O)N(C4CCC(=O)NC4=O)C5=O)C3)nc2C2CC2)n1 (stereo partly drawn) = 6.00 to 7.00
• CNC(=O)c1nn([C@H]2C[C@H](CNc3ccc4c(c3)C(=O)N(C3CCC(=O)NC3=O)C4=O)C2)cc1-c1cccc(C)n1 (stereo partly drawn) = 6.00 to 7.00
• O=C1CCC(N2C(=O)c3ccc(NCCCCCCNc4ncc(-c5cnc6ccccc6n5)s4)cc3C2=O)C(=O)N1 (stereo not drawn) = 6.00 to 7.00
• Cc1cccc(-c2cn([C@H]3C[C@H](CNc4ccc5c(c4)C(=O)N(C4CCC(=O)NC4=O)C5=O)C3)nc2C2CCNCC2)n1 (stereo partly drawn) = < 6.00
• O=C1CCC(N2C(=O)c3ccc(NC[C@H]4C[C@H](n5cc(C6CCCCC6)c(C6CC6)n5)C4)cc3C2=O)C(=O)N1 (stereo partly drawn) = 6.00 to 7.00

Form field - read-out: pIC50; system: MOLM-13 cells; submitted item: N#Cc1ccc2ncc(-c3cnn(CCCCCCNc4ccc5c(c4)C(=O)N(C4CCC(=O)NC4=O)C5=O)c3)nc2c1 (stereo not drawn)
6.00 to 7.00

And for Cc1cncc(-c2cnn(CCCCCCNc3ccc4c(c3)C(=O)N(C3CCC(=O)NC3=O)C4=O)c2)c1 (stereo not drawn) ?
< 6.00

Next record, please: CNc1cccc(-c2cn([C@H]3C[C@H](CNc4ccc5c(c4)C(=O)N(C4CCC(=O)NC4=O)C5=O)C3)nc2C2CC2)n1 (stereo partly drawn)
6.00 to 7.00

Try O=C1CCC(N2C(=O)c3ccc(NC[C@H]4C[C@H](n5cc(-c6cccc(N[C@H]7CC[C@@H](O)CC7)n6)c(C6CC6)n5)C4)cc3C2=O)C(=O)N1 (stereo partly drawn) next.
6.00 to 7.00

Next entry: O=C1CCC(N2C(=O)c3ccc(NCCCCCCn4cc(-c5cnc6ccc(Br)cc6n5)cn4)cc3C2=O)C(=O)N1 (stereo not drawn)
6.00 to 7.00
